From: patent US12162890B2

study-target: HEK293 cells with stable expression of the GRIN1 gene and tetracycline-inducible expression of the GRIN2B gene (NMDA receptor, NR2B) (Homo sapiens)
run-description: Fluo-8 Ca2+ flux assay: reversal of Ro 25-6981-mediated suppression of the Ca2+ response to co-agonist (glutamate/glycine)
Format: cell-based
experimental-setup: reversal of the Ro 25-6981 suppression of the Ca2+ response to co-agonist (glutamate/glycine)
Response Recovered (%) for assorted compounds
endpoint: Response Recovered (%)

                                   compound  result
0  O=C(Cn1ccc2scc(-c3ccc(F)c(Cl)c3)c2c1=O)N1CC(F)(c2ccccc2)C1     15%
1  O=C(Cn1ccc2scc(-c3ccc(F)c(Cl)c3)c2c1=O)N1CC2(CC2)C1     46%
2  O=C(Cn1ccc2scc(-c3ccc(F)c(C(F)(F)F)c3)c2c1=O)N1CC(F)C1     60%
3  Cn1cc(-c2ccc(Cl)cc2)c2c(=O)n(CC(=O)N3CC(F)(F)C3)cnc21     24%
4  CC1(F)CN(C(=O)Cn2ccn3ncc(-c4ccc(F)c(Cl)c4)c3c2=O)C1    110%
5  CCOCc1cn(CC(=O)N2CCC(F)C2)c(=O)c2c(-c3ccc(F)c(Cl)c3)csc12 (centres unmarked)     42%
6  CC1(N)CN(C(=O)Cn2ccc3scc(-c4ccc(F)c(Cl)c4)c3c2=O)C1      1%
7  COC1(C)CN(C(=O)Cn2ccc3scc(-c4ccc(Cl)c(Cl)c4)c3c2=O)C1     16%

* * *

study-target: HEK293 cells with stable expression of the GRIN1 gene and tetracycline-inducible expression of the GRIN2B gene (NMDA receptor, NR2B) (Homo sapiens)
run-description: Fluo-8 Ca2+ flux assay: reversal of Ro 25-6981-mediated suppression of the Ca2+ response to co-agonist (glutamate/glycine)
Assay type: cell-based
experimental-setup: reversal of the Ro 25-6981 suppression of the Ca2+ response to co-agonist (glutamate/glycine)
endpoint: Response Recovered (%)

                                   molecule  readout_number
0  O=C(Cn1ccc2ccc(-c3ccc(F)c(C(F)(F)F)c3)cc2c1=O)N1CCC(F)C1 (centres unmarked)               8
1  CCC1(F)CN(C(=O)Cn2ccn3c(C)nc(-c4ccc(F)c(Cl)c4)c3c2=O)C1            −3.9
2  C[Si](C)(C)CCOCn1cc(-c2ccc(F)c(Cl)c2)c2c(=O)n(CC(=O)N3CCC(F)C3)ccc21 (centres unmarked)             107
3  O=C(Cn1ccc2cccc(-c3ccc(F)c(Cl)c3)c2c1=O)N1CC(F)(F)C1              41
4  Cc1cc(-c2csc3ccn(CC(=O)N4CC(C)(F)C4)c(=O)c23)ccc1F             100
5  O=C(Cn1ccc2scc(-c3ccc(Cl)c(C(F)(F)F)c3)c2c1=O)N1CCCC1              83
6  Cc1cc(-c2csc3ccn(CC(=O)N4CC(C)(F)C4)c(=O)c23)ccc1Cl             130
7  CC1(F)CN(C(=O)Cn2ccn3c(C4CC4)nc(-c4ccc(F)c(Cl)c4)c3c2=O)C1             100

* * *

study-target: HEK293 cells with stable expression of the GRIN1 gene and tetracycline-inducible expression of the GRIN2B gene (NMDA receptor, NR2B) (Homo sapiens, UniProt Q13224)
Sequence (Q13224 27-1484, other chains not shown): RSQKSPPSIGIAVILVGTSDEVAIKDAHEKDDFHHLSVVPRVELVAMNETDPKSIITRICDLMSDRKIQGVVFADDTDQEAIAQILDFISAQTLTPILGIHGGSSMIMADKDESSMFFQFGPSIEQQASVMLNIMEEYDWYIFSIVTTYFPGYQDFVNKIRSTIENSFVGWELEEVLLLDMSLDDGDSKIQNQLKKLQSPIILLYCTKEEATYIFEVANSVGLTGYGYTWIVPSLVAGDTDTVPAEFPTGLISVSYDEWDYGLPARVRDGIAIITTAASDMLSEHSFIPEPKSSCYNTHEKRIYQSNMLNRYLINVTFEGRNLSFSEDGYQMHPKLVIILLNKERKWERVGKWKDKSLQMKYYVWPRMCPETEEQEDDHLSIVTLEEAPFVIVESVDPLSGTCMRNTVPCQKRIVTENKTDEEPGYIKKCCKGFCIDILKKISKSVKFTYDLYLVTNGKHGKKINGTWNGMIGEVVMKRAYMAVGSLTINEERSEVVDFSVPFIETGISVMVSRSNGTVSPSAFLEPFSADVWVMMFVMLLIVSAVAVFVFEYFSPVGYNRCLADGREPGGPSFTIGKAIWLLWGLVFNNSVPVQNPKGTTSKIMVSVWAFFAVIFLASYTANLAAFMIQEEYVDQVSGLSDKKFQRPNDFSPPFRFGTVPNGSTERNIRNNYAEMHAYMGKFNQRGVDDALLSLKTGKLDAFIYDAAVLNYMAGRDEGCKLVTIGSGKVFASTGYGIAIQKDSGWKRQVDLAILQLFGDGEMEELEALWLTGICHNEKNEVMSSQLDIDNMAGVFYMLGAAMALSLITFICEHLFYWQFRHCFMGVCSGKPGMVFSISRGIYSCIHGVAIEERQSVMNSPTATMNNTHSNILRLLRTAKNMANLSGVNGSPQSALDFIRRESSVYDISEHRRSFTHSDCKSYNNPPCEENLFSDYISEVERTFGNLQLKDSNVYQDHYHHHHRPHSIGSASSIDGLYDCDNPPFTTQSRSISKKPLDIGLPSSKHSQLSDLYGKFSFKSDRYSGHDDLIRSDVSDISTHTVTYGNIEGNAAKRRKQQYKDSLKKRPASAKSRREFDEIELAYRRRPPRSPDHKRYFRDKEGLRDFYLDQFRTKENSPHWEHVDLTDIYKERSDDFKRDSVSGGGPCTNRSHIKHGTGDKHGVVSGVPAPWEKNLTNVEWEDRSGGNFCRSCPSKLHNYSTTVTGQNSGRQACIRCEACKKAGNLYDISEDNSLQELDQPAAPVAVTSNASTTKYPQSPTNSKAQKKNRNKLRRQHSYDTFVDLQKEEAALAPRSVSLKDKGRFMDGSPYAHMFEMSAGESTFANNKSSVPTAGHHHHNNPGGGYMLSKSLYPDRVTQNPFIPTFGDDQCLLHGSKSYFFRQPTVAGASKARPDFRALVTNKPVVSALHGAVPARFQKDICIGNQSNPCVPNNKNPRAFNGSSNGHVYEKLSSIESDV
run-description: Fluo-8 Ca2+ flux assay: reversal of Ro 25-6981-mediated suppression of the Ca2+ response to co-agonist (glutamate/glycine); further: test concentration or dose not given here
Format: cell-based
experimental-setup: reversal of the Ro 25-6981 suppression of the Ca2+ response to co-agonist (glutamate/glycine)
endpoint: Response Recovered (%)

>>> print(df.to_string())
                                    compound                endpoint  result
 0  CC1(F)CN(C(=O)Cn2ccn3c(C4CC4)nc(-c4cnc(Cl)c(Cl)c4)c3c2=O)C1  Response Recovered (%)     65%
 1  Cn1cnc(-n2cc(-c3ccc(F)c(Cl)c3)c3c(=O)n(CC(=O)N4CC(C)(F)C4)ccc32)n1  Response Recovered (%)    130%
 2  O=C(Cn1cnc2c(c(-c3ccc(Cl)c(C(F)(F)F)c3)cn2CCO)c1=O)N1CCCC1  Response Recovered (%)      2%
 3  O=C(Cn1ccc2c(c(-c3ccc(Cl)c(C(F)(F)F)c3)cn2-c2ccccn2)c1=O)N1CCC(F)C1 (stereo not drawn)  Response Recovered (%)    109%
 4  O=C(Cn1cnc2ccn(-c3ccc(Cl)cc3)c2c1=O)N1CCCCC1  Response Recovered (%)      1%
 5  O=C(Cn1ccc2scc(-c3ccc(Cl)c(Cl)c3)c2c1=O)N1CC(F)(CF)C1  Response Recovered (%)    140%
 6  O=C(Cn1ccc2[nH]cc(-c3ccc(Cl)c(F)c3)c2c1=O)N1CCC(F)C1 (stereo not drawn)  Response Recovered (%)     47%
 7  O=C(Cn1ncc2scc(-c3ccc(Cl)c(Cl)c3)c2c1=O)N1CCCC1  Response Recovered (%)     15%
 8  O=C(Cn1cnc2occ(-c3ccc(Cl)cc3)c2c1=O)N1CCC(C(F)(F)F)C1 (stereo not drawn)  Response Recovered (%)      7%
 9  O=C(Cn1cnc2onc(-c3ccc(Cl)cc3)c2c1=O)N1CCC(F)C1 (stereo not drawn)  Response Recovered (%)      4%
10  CCn1cc(-c2ccc(F)c(Cl)c2)c2c(=O)n(CC(=O)N3CCCC3)cnc21  Response Recovered (%)     42%
11  O=C(Cn1cnc2c(Br)sc(-c3ccc(Cl)c(F)c3)c2c1=O)N1CCCC1  Response Recovered (%)     41%
12  O=C(Cn1cc(C2CC2)c2scc(-c3ccc(Cl)c(C(F)(F)F)c3)c2c1=O)N1CCCC1  Response Recovered (%)     29%
13  O=C(Cn1ncc2scc(-c3ccc(Cl)c(F)c3)c2c1=O)N1CC(F)(F)C1  Response Recovered (%)      3%
14  CC1(N)CN(C(=O)Cn2ccc3scc(-c4ccc(Cl)c(Cl)c4)c3c2=O)C1  Response Recovered (%)    3.1%
15  O=C(Cn1ccc2c(c(-c3ccc(F)c(Cl)c3)cn2-c2ccccn2)c1=O)N1CCC(F)C1 (stereo not drawn)  Response Recovered (%)     39%
16  O=C(Cn1ccc2scc(-c3ccc(F)c(Cl)c3)c2c1=O)NCC(F)(F)F  Response Recovered (%)    7.3%
17  Cc1cc(-c2nc(C3CC3)n3ccn(CC(=O)N4CC(C)(F)C4)c(=O)c23)ccc1F  Response Recovered (%)     65%
18  O=C(Cn1cnc2[nH]cc(-c3ccc(F)c(C(F)(F)F)c3)c2c1=O)N1CCC(F)C1 (stereo not drawn)  Response Recovered (%)     91%
19  O=C(Cn1cnc2[nH]cc(-c3cnc(Cl)c(C(F)(F)F)c3)c2c1=O)N1CCC(F)C1 (stereo not drawn)  Response Recovered (%)     14%
20  O=C(Cn1ccc2scc(-c3cnc(F)c(Cl)c3)c2c1=O)N1CCC(F)C1 (stereo not drawn)  Response Recovered (%)     22%
21  O=C(Cn1cnc2[nH]nc(-c3ccc(Cl)c(C(F)(F)F)c3)c2c1=O)N1CC(F)(F)C1  Response Recovered (%)      9%
22  O=C(Cn1cnc2[nH]nc(-c3ccc(Cl)c(C(F)(F)F)c3)c2c1=O)N1CCCC1  Response Recovered (%)      8%
23  O=C(Cn1ccc2cccc(-c3ccc(Cl)c(F)c3)c2c1=O)N1CC(F)(F)C1  Response Recovered (%)     23%
24  O=C(Cn1cc(-c2ccccc2)c2scc(-c3ccc(Cl)c(C(F)(F)F)c3)c2c1=O)N1CCCC1  Response Recovered (%)     23%
25  CC1(F)CN(C(=O)Cn2ccc3c(c(-c4ccc(Cl)c(Cl)c4)cn3C3CC3)c2=O)C1  Response Recovered (%)    130%
26  O=C(Cn1cnc2[nH]cc(-c3ccc(Cl)c(F)c3)c2c1=O)N1CCC(F)C1 (stereo not drawn)  Response Recovered (%)     37%
27  COC1CN(C(=O)Cn2cnc3csc(-c4ccc(Cl)cc4)c3c2=O)C1  Response Recovered (%)      1%
28  CC1(O)CN(C(=O)Cn2ccc3scc(-c4ccc(F)c(C(F)(F)F)c4)c3c2=O)C1  Response Recovered (%)     14%
29  O=C(Cn1ccn2ccc(-c3ccc(F)c(C(F)(F)F)c3)c2c1=O)N1CC(F)(CF)C1  Response Recovered (%)    130%
30  O=C(Cn1cc(CN2CCCC2)c2scc(-c3ccc(F)c(Cl)c3)c2c1=O)N1CCC(F)C1 (stereo not drawn)  Response Recovered (%)     75%
31  CCC1(F)CN(C(=O)Cn2ccn3ccc(-c4ccc(F)c(Cl)c4)c3c2=O)C1  Response Recovered (%)     97%
32  O=C(Cn1ccc2scc(-c3cnc(Cl)c(Cl)c3)c2c1=O)N1CCC(F)C1 (stereo not drawn)  Response Recovered (%)     35%
